- Target Or System: KRAS-G12D protein (Homo sapiens, UniProt P01116, G12D)
- Sequence (P01116 1-188 isoform P01116-2 G12D): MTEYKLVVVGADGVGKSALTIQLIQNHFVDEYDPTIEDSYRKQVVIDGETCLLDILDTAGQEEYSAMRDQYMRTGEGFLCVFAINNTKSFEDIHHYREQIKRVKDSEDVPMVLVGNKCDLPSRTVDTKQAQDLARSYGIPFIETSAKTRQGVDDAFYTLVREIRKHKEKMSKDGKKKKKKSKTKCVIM
- Assay: SOS-mediated nucleotide exchange assay (BODIPY-GDP / Tb-streptavidin TR-FRET)
- Assay type: biochemical
pEC50: −log10 of the molar value. *1 amine or outer side, *2 acyl side, *3 side chain or, on linkers, in order; H or OH if unused. Where a SMILES comes first, the peptide text is derived from it. Bridges are numbered along the chain shown (N, C = ends). [ ]: non-standard residue; d: D form. X34 = O=C(C[C@@H](Cc1ccccc1)C(=O)[*:2])C12CC(CN[*:1])(C1)C2; X65 = O=C([C@H](CCCn1ccnc1[N+](=O)[O-])N[*:1])[*:2]; Ala(pyrimidin-5-yl) = N[C@@H](Cc1cncnc1)C(=O)O; X11 = CC(C)(F)CC[C@H](N[*:1])C(=O)[*:2]; X35 = CN([C@@H](CCCF)C(=O)[*:2])[*:1]; Phe(2-F) = N[C@@H](Cc1ccccc1F)C(=O)O; Gly(octyl) = CCCCCCCC[C@H](N)C(=O)O; NMe3Pal = CN[C@@H](Cc1cccnc1)C(=O)O; X1 = O=C(C12CC(CN[*:1])(C1)C2)[*:2]; Ala(cPr) = N[C@@H](CC1CC1)C(=O)O; NMeF = CN[C@@H](Cc1ccccc1)C(=O)O; PhLac = O=C(O)[C@@H](O)Cc1ccccc1; 3Pal = N[C@@H](Cc1cccnc1)C(=O)O; d3Pal = N[C@H](Cc1cccnc1)C(=O)O; Cba = N[C@@H](CC1CCC1)C(=O)O; NMeA = CN[C@@H](C)C(=O)O; Nle = CCCC[C@H](N)C(=O)O
Classify by measured pEC50: Criterion met if it is equal to or exceeds 7, Criterion not met if it is smaller.

# Compound, Qualitative Label
rows = [
    ("CCCC[C@@H]1NC(=O)[C@H](Cc2ccccc2F)NC(=O)[C@H](CC2CCC2)NC(=O)[C@@H](Cc2cccnc2)NC(=O)[C@H](CCCn2ccnc2[N+](=O)[O-])NC(=O)[C@H](Cc2ccccc2)NC(=O)C23CC(CNC(=O)[C@H](Cc4cccnc4)N(C)C1=O)(C2)C3 [compound 107] (cyclo(F[X65][d3Pal][Cba][Phe(2-F)][Nle][NMe3Pal][X1]))", "Criterion not met"),
    ("CCCCCCCC[C@@H]1NC(=O)[C@H](Cc2ccc(O)cc2)NC(=O)[C@H](CC(C)C)NC(=O)[C@H](Cc2ccc(O)cc2)NC(=O)[C@H](CCCNC(=N)N)NC(=O)[C@H](Cc2ccccc2)NC(=O)CSC[C@@H](C(=O)NCC(=O)N[C@@H](CCCCN)C(=O)N[C@@H](CCCCN)C(N)=O)NC(=O)[C@H](Cc2ccccc2)N(C)C1=O [compound 59, cyclo(-F-R-Y-L-Y-Aca-NMeF-C2-ClAc)] ({CH2CO}-FRYLY[Gly(octyl)][NMeF]CGKK-NH2; thioether N-8)", "Criterion not met"),
    ("CCCC[C@@H]1NC(=O)[C@H](Cc2cccnc2)NC(=O)[C@H](CCCF)N(C)C(=O)[C@H](Cc2ccccc2)OC(=O)C23CC(CNC(=O)[C@H](Cc4cccnc4)N(C)C(=O)[C@H](CCCC)NC(=O)[C@H](Cc4ccccc4F)NC1=O)(C2)C3 [compound 239] (cyclo([3Pal][Nle][Phe(2-F)][Nle][NMe3Pal][X1][PhLac][X35]))", "Criterion not met"),
    ("C[C@H]1C(=O)N[C@@H](Cc2cncnc2)C(=O)N[C@@H](CC2CC2)C(=O)N[C@@H](Cc2ccccc2F)C(=O)N[C@@H](CCC(C)(C)F)C(=O)N(C)[C@@H](Cc2ccccc2)C(=O)NCC23CC(C2)(C3)C(=O)C[C@@H](Cc2ccccc2)C(=O)N1C [compound 273] (cyclo([Ala(cPr)][Phe(2-F)][X11][NMeF][X34][NMeA][Ala(pyrimidin-5-yl)]))", "Criterion met"),
    ("CCCC[C@@H]1NC(=O)[C@H](Cc2ccc(O)cc2)NC(=O)[C@H](CC(C)C)NC(=O)[C@H](Cc2ccc(O)cc2)NC(=O)[C@H](CCCNC(=N)N)NC(=O)[C@H](Cc2ccccc2)NC(=O)CSC[C@H](C(N)=O)NC(=O)[C@H](Cc2ccccc2)N(C)C1=O [compound 18, cyclo(F-R-Y-L-Y-Nle-NMeF-dCl-ClAc)]", "Criterion not met"),
]

Recorded values, source patent US20260001914A1.
